Values from the METLIN SMRT retention time set (Domingo-Almenara et al. 2019)

assay: gradient 5% acetonitrile 3 min, to 50% in 2 min, to 85% in 15 min, held 3 min, 100 µL/min; settings: column: Zorbax Extend-C18 2.1 x 50 mm; eluents: water / acetonitrile, 0.1% formic acid
Field: RP-LC retention time. Provide a value for each of the molecules that follow.
Answers are plain numbers, in s.

Check out these entries, answers already filled in.
{"molecule": "Cc1nc(-c2noc(-c3ccc(F)cc3)n2)cn1CC(=O)NCc1ccc(Cl)cc1", "RP-LC retention time / s": 896}
{"molecule": "COc1ccc(S(=O)(=O)N2CCCC(C(=O)Nc3cc(Cl)ccc3OC)C2)cc1Cl (centres undefined)", "RP-LC retention time / s": 1110}
{"molecule": "CCOc1ccccc1C(=O)NCC1CCN(C(=O)c2ccccc2F)CC1", "RP-LC retention time / s": 756}
{"molecule": "Cc1ccc(NC(=O)CN2C(=O)NC(c3ccccc3Cl)C3=C2COC3=O)cc1C (centres undefined)", "RP-LC retention time / s": 819}
{"molecule": "COC(=O)c1c(C)[nH]c(C(=O)N2CCC(CC(=O)NCCc3c(C)noc3C)CC2)c1C", "RP-LC retention time / s": 654}

Parameter requested: RP-LC retention time. Apply to each item below.
1. O=C1CCCN1CCCN1C(=O)[C@H]2CN(Cc3cccc(OC(F)(F)F)c3)C[C@H]2C1=O
2. CC(C)c1ccc(S(=O)(=O)N2CCCC2c2nc(-c3ccc(Cl)cc3)no2)cc1 (centres undefined)

678
1360
